assay: Cytotoxicity against human THP1 cells after 72 hrs by MTT assay; type: cell-based; conditions: THP-1 cells
measured-endpoint: CC50 at 72 h (µM)

[
  {
    "molecule": "O[C@@H]1Cc2ccccc2N[C@H](c2c(F)cccc2Cl)C1 (relative stereo)",
    "operator": ">",
    "numeric-value": 300
  },
  {
    "molecule": "O[C@@H]1Cc2cc(Cl)ccc2N[C@H](c2ccccc2Cl)C1 (relative stereo)",
    "operator": "=",
    "numeric-value": 75.5
  },
  {
    "molecule": "O[C@@H]1Cc2cc(Cl)ccc2N[C@H](c2ccccc2)C1 (relative stereo)",
    "operator": "=",
    "numeric-value": 188
  },
  {
    "molecule": "Cc1ccc([C@@H]2C[C@H](O)Cc3cc(C)ccc3N2)cc1 (relative stereo)",
    "operator": "=",
    "numeric-value": 172
  },
  {
    "molecule": "Fc1ccc2c(c1)C[C@H]1C[C@@H](c3ccccc3)N2O1 (relative stereo)",
    "operator": ">",
    "numeric-value": 300
  },
  {
    "molecule": "Clc1ccc([C@@H]2C[C@@H]3Cc4ccccc4N2O3)cc1 (relative stereo)",
    "operator": ">",
    "numeric-value": 300
  },
  {
    "molecule": "Clc1ccc2c(c1)C[C@H]1C[C@@H](c3ccccc3Cl)N2O1 (relative stereo)",
    "operator": ">",
    "numeric-value": 300
  },
  {
    "molecule": "O[C@@H]1Cc2cc(Br)ccc2N[C@H](c2ccccc2)C1 (relative stereo)",
    "operator": "=",
    "numeric-value": 185
  },
  {
    "molecule": "FC(F)(F)Oc1ccc2c(c1)C[C@H]1C[C@@H](c3ccccc3)N2O1 (relative stereo)",
    "operator": ">",
    "numeric-value": 300
  },
  {
    "molecule": "Cc1ccc([C@@H]2C[C@@H]3Cc4cc(C)ccc4N2O3)cc1 (relative stereo)",
    "operator": "=",
    "numeric-value": 74
  },
  {
    "molecule": "Brc1ccc2c(c1)C[C@H]1C[C@@H](c3ccccc3)N2O1 (relative stereo)",
    "operator": ">",
    "numeric-value": 300
  },
  {
    "molecule": "Clc1ccc2c(c1)C[C@H]1C[C@@H](c3ccc(Br)cc3)N2O1 (relative stereo)",
    "operator": "=",
    "numeric-value": 236
  },
  {
    "molecule": "O[C@@H]1Cc2cc(Cl)ccc2N[C@H](c2ccc(Br)cc2)C1 (relative stereo)",
    "operator": "=",
    "numeric-value": 153
  },
  {
    "molecule": "O[C@@H]1Cc2cc(OC(F)(F)F)ccc2N[C@H](c2ccccc2)C1 (relative stereo)",
    "operator": "=",
    "numeric-value": 104
  },
  {
    "molecule": "O[C@@H]1Cc2ccccc2N[C@H](c2ccc(Cl)cc2)C1 (relative stereo)",
    "operator": "=",
    "numeric-value": 114
  },
  {
    "molecule": "Cc1ccc2c(c1)C[C@H]1C[C@@H](c3ccccc3Cl)N2O1 (relative stereo)",
    "operator": "=",
    "numeric-value": 66.8
  },
  {
    "molecule": "O[C@@H]1Cc2ccccc2N[C@H](c2ccccc2)C1 (relative stereo)",
    "operator": ">",
    "numeric-value": 300
  },
  {
    "molecule": "Fc1ccccc1[C@@H]1C[C@@H]2Cc3cc(Cl)ccc3N1O2 (relative stereo)",
    "operator": ">",
    "numeric-value": 300
  },
  {
    "molecule": "O[C@@H]1Cc2cc(F)ccc2N[C@H](c2ccc(Cl)cc2)C1 (relative stereo)",
    "operator": "=",
    "numeric-value": 100
  },
  {
    "molecule": "Clc1ccccc1[C@@H]1C[C@@H]2Cc3ccccc3N1O2 (relative stereo)",
    "operator": "=",
    "numeric-value": 110
  },
  {
    "molecule": "O[C@@H]1Cc2cc(Cl)ccc2N[C@H](c2ccccc2F)C1 (relative stereo)",
    "operator": "=",
    "numeric-value": 110
  },
  {
    "molecule": "Cc1cccc([C@@H]2C[C@@H]3Cc4ccccc4N2O3)c1 (relative stereo)",
    "operator": ">",
    "numeric-value": 300
  },
  {
    "molecule": "Clc1ccc2c(c1)C[C@H]1C[C@@H](c3ccccc3)N2O1 (relative stereo)",
    "operator": ">",
    "numeric-value": 300
  },
  {
    "molecule": "Clc1cccc([C@@H]2C[C@@H]3Cc4ccccc4N2O3)c1 (relative stereo)",
    "operator": "=",
    "numeric-value": 134
  },
  {
    "molecule": "Clc1ccc([C@@H]2C[C@@H]3Cc4cc(Cl)ccc4N2O3)cc1 (relative stereo)",
    "operator": ">",
    "numeric-value": 300
  },
  {
    "molecule": "O[C@@H]1Cc2cc(Cl)ccc2N[C@H](c2c(Cl)cccc2Cl)C1 (relative stereo)",
    "operator": "=",
    "numeric-value": 59.6
  },
  {
    "molecule": "Cc1ccc2c(c1)C[C@@H](O)C[C@@H](c1ccccc1Cl)N2 (relative stereo)",
    "operator": "=",
    "numeric-value": 85.2
  },
  {
    "molecule": "Clc1cccc(Cl)c1[C@@H]1C[C@@H]2Cc3ccccc3N1O2 (relative stereo)",
    "operator": ">",
    "numeric-value": 300
  },
  {
    "molecule": "O[C@@H]1Cc2ccccc2N[C@H](c2cccc(Cl)c2)C1 (relative stereo)",
    "operator": "=",
    "numeric-value": 167
  },
  {
    "molecule": "c1ccc([C@@H]2C[C@@H]3Cc4ccccc4N2O3)cc1 (relative stereo)",
    "operator": ">",
    "numeric-value": 300
  },
  {
    "molecule": "Fc1ccc([C@@H]2C[C@@H]3Cc4ccccc4N2O3)cc1 (relative stereo)",
    "operator": "=",
    "numeric-value": 183
  },
  {
    "molecule": "Fc1ccc2c(c1)C[C@H]1C[C@@H](c3ccc(Cl)cc3)N2O1 (relative stereo)",
    "operator": ">",
    "numeric-value": 300
  },
  {
    "molecule": "O[C@@H]1Cc2ccccc2N[C@H](c2ccccc2F)C1 (relative stereo)",
    "operator": ">",
    "numeric-value": 300
  },
  {
    "molecule": "O[C@@H]1Cc2cc(F)ccc2N[C@H](c2ccccc2)C1 (relative stereo)",
    "operator": ">",
    "numeric-value": 300
  },
  {
    "molecule": "Fc1ccccc1[C@@H]1C[C@@H]2Cc3ccccc3N1O2 (relative stereo)",
    "operator": "=",
    "numeric-value": 200
  }
]
